# Test system: washed human platelets
# assayProtocol: Human platelet aggregation assay (thrombin-induced)
# Format: cell-based
# experimentalContext: Homo sapiens, Platelet; single concentration of 10 μM (n = 3); thrombin
measureName: inhibition at 10 µM (%)

[
  {
    "smiles": "O=C(c1ccccc1)c1no[n+]([O-])c1C(=O)c1ccccc1",
    "measureName": "inhibition at 10 µM",
    "outputUnit": "%",
    "value": 97
  },
  {
    "smiles": "O=C(c1ccc(F)cc1)c1no[n+]([O-])c1C(=O)c1ccc(F)cc1",
    "measureName": "inhibition at 10 µM",
    "outputUnit": "%",
    "value": 97
  },
  {
    "smiles": "O=C(c1ccccc1C(F)(F)F)c1no[n+]([O-])c1C(=O)c1ccccc1C(F)(F)F",
    "measureName": "inhibition at 10 µM",
    "outputUnit": "%",
    "value": 84
  },
  {
    "smiles": "O=C(c1cccc(OCc2ccccc2)c1)c1no[n+]([O-])c1C(=O)c1cccc(OCc2ccccc2)c1",
    "measureName": "inhibition at 10 µM",
    "outputUnit": "%",
    "value": 49
  }
]

* * *

# tgt: CIB1 and αIIb interaction (CIB1-GST : F-αIIb peptide) (Homo sapiens, UniProt Q99828)
# Construct: made in house; host or cells: BL-21 plus RIL cells (E. coli)
# Sequence (Q99828 whole entry): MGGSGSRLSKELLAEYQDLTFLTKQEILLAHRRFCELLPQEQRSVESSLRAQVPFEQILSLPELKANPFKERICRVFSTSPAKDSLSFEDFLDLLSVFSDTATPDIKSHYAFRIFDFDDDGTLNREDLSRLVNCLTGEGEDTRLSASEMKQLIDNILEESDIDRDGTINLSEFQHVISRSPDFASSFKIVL
# assayProtocol: FP assay, 1536-well qHTS format (primary and confirmatory screen)
# Format: binding
# experimentalContext: qHTS primary screen hits, Table S2; negative sign = inhibitory curve
measureName: Curve Class

[
  {
    "compound": "COc1cccc(CNc2ccc(S(=O)(=O)Nc3ccc(C4CCNCC4)cc3)cc2)c1O.O=C(O)C(F)(F)F [NCGC00343917-01]",
    "value": -2.4
  },
  {
    "compound": "Nc1ccc2c3c(cccc13)C(=O)NC2=O [NCGC00015035-07]",
    "value": -1.2
  },
  {
    "compound": "Cc1cc(O)c2c(c1)C(=O)c1cc(O)cc(O)c1C2=O [NCGC00015420-08]",
    "value": -1.2
  },
  {
    "compound": "O=C(O)C(F)(F)F.O=C1CCCC2=C1C(c1cccnc1Br)N=C(Nc1nc3ccccc3o1)N2 (stereo not shown) [NCGC00189281-01]",
    "value": -2.4
  }
]

* * *

# tgt: CIB1 and αIIb interaction (GST-CIB1 : F-αIIb peptide) (Homo sapiens, UniProt Q99828)
# Construct: made in house; host or cells: BL-21 plus RIL cells (E. coli)
# assayProtocol: FP assay, 384-well format (screen)
# Assay type: binding
# experimentalContext: F-αIIb peptide; YES/NO
measureName: 384-well SCREEN Confirm?

[
  {
    "smiles": "O=C(Cc1ccc(Cl)c(Cl)c1)Nc1ccc(S(=O)(=O)Nc2ccon2)cc1.O=C(O)C(F)(F)F",
    "measureName": "384-well SCREEN Confirm?",
    "value": "YES"
  },
  {
    "smiles": "O=C(Nc1nc(-c2ccccc2)cs1)c1ccncc1NS(=O)(=O)c1ccc(Cl)cc1.O=C(O)C(F)(F)F",
    "measureName": "384-well SCREEN Confirm?",
    "value": "YES"
  },
  {
    "smiles": "O=C1C=CC(=O)N1c1cccc(Br)c1",
    "measureName": "384-well SCREEN Confirm?",
    "value": "YES"
  },
  {
    "smiles": "N[C@@H](Cc1ccc(Oc2cc(I)c(O)c(I)c2)c(I)c1)C(=O)O",
    "measureName": "384-well SCREEN Confirm?",
    "value": "YES"
  }
]

* * *

Reported IC50 by item:
# tgt: CIB1 and αIIb interaction (GST-CIB1 : F-αIIb peptide) (Homo sapiens)
# Construct: made in house; host or cells: BL-21 plus RIL cells (E. coli)
# assayProtocol: FP assay, 384-well format (screen)
# Format: binding
# experimentalContext: 384-well FP assay; Table 1; read-out: FP assay IC50

[
  {
    "molecule": "COc1ccc(C(=O)c2no[n+]([O-])c2C(=O)c2ccc(OC)cc2)cc1.O=C(O)C(F)(F)F [NCGC00064079-03]",
    "outputUnit": "µM",
    "IC50": 4.53
  },
  {
    "molecule": "Cc1ccccc1C(=O)c1no[n+]([O-])c1C(=O)c1ccccc1C.O=C(O)C(F)(F)F [NCGC00351166-01]",
    "outputUnit": "µM",
    "IC50": 4.26
  },
  {
    "molecule": "O=C(c1ccccc1)c1no[n+]([O-])c1C(=O)c1ccccc1 [NCGC00351168-02]",
    "outputUnit": "µM",
    "IC50": 7.85
  },
  {
    "molecule": "Cc1ccc(C(=O)c2no[n+]([O-])c2C(=O)c2ccc(C)cc2)cc1.O=C(O)C(F)(F)F [NCGC00351163-01]",
    "outputUnit": "µM",
    "IC50": 6.68
  }
]

* * *

# tgt: CIB1 and αIIb interaction (CIB1-GST : F-αIIb peptide) (Homo sapiens)
# Construct: made in house; host or cells: BL-21 plus RIL cells (E. coli)
# assayProtocol: FP assay, 1536-well qHTS format (primary and confirmatory screen)
# Type: binding
# experimentalContext: qHTS primary screen hits, Table S2; negative = inhibition
Response key: 1 means Efficacy (%) >= -30%; 0 means Efficacy (%) < -30%.

[
  {
    "compound": "Cc1ccc(S(=O)(=O)Nc2nn3c(=O)c4ccccc4nc3s2)cc1C.O=C(O)C(F)(F)F [NCGC00187578-01]",
    "answerLabel": 1
  },
  {
    "compound": "CC(C)(C)CNc1ncnc2ccc(-c3ccc(CO)o3)cc12.O=C(O)C(F)(F)F [NCGC00238375-01]",
    "answerLabel": 0
  },
  {
    "compound": "CN1CCN(CCC(=O)N2c3ccccc3Sc3ccc(C(F)(F)F)cc32)CC1.Cl [NCGC00160483-02]",
    "answerLabel": 0
  },
  {
    "compound": "COc1ccccc1-c1cccc(-c2c(O)c3cc(C#N)c(Cl)cc3[nH]c2=O)c1 [NCGC00263230-01]",
    "answerLabel": 1
  },
  {
    "compound": "CCOC(=O)c1[nH]c2c(c1C)C(=S)CC(c1ccco1)C2.O=C(O)C(F)(F)F (stereo not drawn) [NCGC00238571-01]",
    "answerLabel": 0
  },
  {
    "compound": "COc1cccc2c1C(=O)c1c(O)c3c(c(O)c1C2=O)C[C@@](O)(C(=O)CO)C[C@@H]3O[C@H]1C[C@H](N)[C@H](O[C@@H]2CCCCO2)[C@H](C)O1 [NCGC00167982-02]",
    "answerLabel": 0
  },
  {
    "compound": "CCOC(=O)c1csc(-n2nc(-c3ccc(F)c(F)c3)cc2O)n1 [NCGC00356457-01]",
    "answerLabel": 1
  },
  {
    "compound": "Cc1c(OCC(F)(F)F)ccnc1C[S+]([O-])c1nc2ccccc2[nH]1 (stereo not drawn) [NCGC00015615-15]",
    "answerLabel": 1
  },
  {
    "compound": "Cl.Nc1cc(C(F)(F)F)ccc1S [NCGC00262926-01]",
    "answerLabel": 0
  },
  {
    "compound": "C[C@@H](NCc1cc2ccccc2[nH]1)c1cccc2ccccc12.Cl [NCGC00344505-01]",
    "answerLabel": 0
  },
  {
    "compound": "COc1cccc(CNc2ccc(S(=O)(=O)Nc3nc(-c4ccccc4)cs3)cc2)c1O.O=C(O)C(F)(F)F [NCGC00346865-01]",
    "answerLabel": 0
  },
  {
    "compound": "CS(=O)(=O)c1ccc(C(=O)OCC(=O)N2CCN(CCC3CCCCC3)CC2)cc1[N+](=O)[O-].O=C(O)C(F)(F)F [NCGC00188531-01]",
    "answerLabel": 1
  },
  {
    "compound": "Cc1nc(N=Nc2cc(S(=O)(=O)O)c3cc([N+](=O)[O-])cc(S(=O)(=O)O)c3c2)c(COP(=O)(O)O)c(C=O)c1O (stereo in doubt) [NCGC00162294-03]",
    "answerLabel": 0
  },
  {
    "compound": "N#Cc1cc2nc([O-])c([O-])nc2cc1[N+](=O)[O-].[Na+].[Na+] [NCGC00015198-04]",
    "answerLabel": 0
  },
  {
    "compound": "O=C(NC(c1ccco1)c1cc(Cl)c2cccnc2c1O)c1cccs1.O=C(O)C(F)(F)F (stereo not drawn) [NCGC00188375-01]",
    "answerLabel": 0
  },
  {
    "compound": "O=C(Cn1nc(-c2ccc(F)cc2)ccc1=O)NCCc1ccccc1.O=C(O)C(F)(F)F [NCGC00262332-01]",
    "answerLabel": 1
  },
  {
    "compound": "Cn1cc(-c2[nH]c3cc(NC(=O)[C@H](N)C4CCCCC4)cc4c3c2C=NNC4=O)cn1 [NCGC00263132-02]",
    "answerLabel": 1
  },
  {
    "compound": "O=C(O)C(F)(F)F.c1nc(NCCc2c[nH]cn2)c2ccc(-c3ccc4c(c3)OCO4)cc2n1 [NCGC00185971-01]",
    "answerLabel": 1
  },
  {
    "compound": "CN(C)c1ccc(-c2ccnc(O)c2N)cc1 [NCGC00181386-01]",
    "answerLabel": 1
  },
  {
    "compound": "COc1ccc(NC(=O)c2cccs2)cn1.O=C(O)C(F)(F)F [NCGC00229661-01]",
    "answerLabel": 0
  },
  {
    "compound": "Cc1cc(C)nc(NC(=S)N2CCN(c3ccc4nonc4c3)CC2)c1.O=C(O)C(F)(F)F [NCGC00244156-01]",
    "answerLabel": 1
  },
  {
    "compound": "O=C(O)C1NCc2[nH]cnc2C1c1ccccc1 (stereo not drawn) [NCGC00167998-01]",
    "answerLabel": 1
  },
  {
    "compound": "O=C1NC(c2cccc([N+](=O)[O-])c2)=CCN1c1ccccc1O [NCGC00015571-05]",
    "answerLabel": 1
  },
  {
    "compound": "Nc1c(S(=O)(=O)[O-])cc(Nc2ccc(Nc3nc(Cl)nc(Nc4ccc(S(=O)(=O)O)cc4)n3)c(S(=O)(=O)O)c2)c2c1C(=O)c1ccccc1C2=O.[Na+] [NCGC00162329-02]",
    "answerLabel": 0
  },
  {
    "compound": "O=C(O)C(F)(F)F.O=C1CC(c2ccc(F)cc2Cl)c2sc(N3CCOCC3)nc2N1 (stereo not drawn) [NCGC00488260-02]",
    "answerLabel": 0
  },
  {
    "compound": "Cc1c2c(=O)n(-c3ccccc3)[nH]c2cc(=O)n1Cc1ccncc1.O=C(O)C(F)(F)F [NCGC00248478-01]",
    "answerLabel": 0
  },
  {
    "compound": "COc1ccc2c(=O)n3nc(Nc4cccc(N5CCN(C)CC5)c4)sc3nc2c1.Cl [NCGC00187813-01]",
    "answerLabel": 1
  },
  {
    "compound": "Oc1cc(Cl)ccc1Oc1ccc(Cl)cc1Cl [NCGC00159417-06]",
    "answerLabel": 1
  },
  {
    "compound": "O=C(O)C1=NC(C(=O)O)CC(/C=C/N2c3cc(O)c(OC4OC(CO)C(O)C(O)C4O)cc3CC2C(=O)O)=C1 (stereo not drawn) [NCGC00346734-01]",
    "answerLabel": 1
  }
]
